The measured values listed here are drawn from patent US20200190192A1.

Target: T1, recombinant human Tim-3-Fc (R&D Systems, 2365-TM) (human, UniProt Q8TDQ0 22-202, biotinylated in the Galectin-9 competition ELISA (sites not given))
T1 construct: Bought protein; also called huTim-3-Fc; biotinylated Tim-3-Fc; not shown: Fc of the bought fusion protein
Experiment: SPR Biacore, human Tim-3 Fc; KD estimated
Kd values for the binders below.
Numeric answer only, unit nM assumed.

# binder, Kd [nM]
data = [
    ("h22E11-VK4-1 × h22E11-5-IgG-HC (antibody, V domains shown, Humanized m22E11) VH: EVQLVESGGGLVQPGGSLRLSCAVSGFSLTSYGVHWVRQAPGKGLEWLVVIWSDGSTTYNSALKSRFTISKDNAKNSVYLQMNSLRAEDTAVYYCARQGGYRYDDAMDYWGQGTLVTVSS VL: DIVLTQSPDSLAVSLGERATINCKASQSVDYDGNSYVNWYQQKPGQPPKLLIYAASNLESGVPDRFSGSGSGTDFTLTISSLQAEDVAVYYCQQSNEDPYTFGQGTKVEIK", 5.7),
    ("h22E11-VK3-11 × h22E11-VH3-23 (antibody, V domains shown, Humanized m22E11) VH: EVQLLESGGGLVQPGGSLRLSCAVSGFSLTSYGVHWVRQAPGKGLEWLVVIWSDGSTTYNDSVKGRFTISKDNSKNTVYLQMNSLRAEDTAVYYCARQGGYRYDDAMDYWGQGTLVTVSS VL: EIVLTQSPATLSLSPGERATLSCKASQSVDYDGNSYVNWYQQKPGQAPRLLIYAASNLESGIPARFSGSGSGTDFTLTISSLEPEDFAVYYCQQSNEDPYTFGQGTKVEIK", 5.3),
]

Continue with the binder presented below.
Value of Kd reported for the binder h22E11-VK3-11 × h22E11-VH1-69 (antibody, V domains shown, Humanized m22E11) VH: QVQLVQSGAEVKKPGSSVKVSCKVSGFSLTSYGVHWVRQAPGQGLEWLVVIWSDGSTTYNQKFQGRVTITKDESTSTVYMELSSLRSEDTAVYYCARQGGYRYDDAMDYWGQGTLVTVSS VL: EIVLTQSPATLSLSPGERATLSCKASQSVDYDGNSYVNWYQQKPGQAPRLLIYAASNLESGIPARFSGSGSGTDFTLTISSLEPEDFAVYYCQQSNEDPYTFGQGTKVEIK is 4.9
